tested on: OVCAR-5; test: NCI in vitro cytotoxicity (SRB, 48 h), Ovarian panel; assay type: cell-based; conditions: Homo sapiens; OVCAR-5, Ovarian; 48 h exposure
MEASURED_ATTRIBUTE: GI50

input: I'd like to know its GI50. The compound in question is COc1ccc(-c2nc3sccn3c2/C=C/C(=O)c2cc(OC)c(OC)c(OC)c2)cc1
output: 1990 nM

input: I'd like to know its GI50. The compound in question is COc1ccc(C(=O)/C=C/c2c(C(F)(F)F)nc3sccn23)cc1OC
output: 4180 nM

input: I'd like to know its GI50. The compound in question is COc1cc(C(=O)/C=C/c2c(-c3ccc(F)cc3)nc3sc(C)cn23)cc(OC)c1OC [Compound 19e]
output: > 100000 nM

input: I'd like to know its GI50. The compound in question is COc1cc(C(=O)/C=C/c2c(-c3ccc(F)cc3)nc3sccn23)cc(OC)c1OC
output: 1920 nM
